# assayProcedure: Cytotoxicity against human CEM cells assessed as cell count after 3 days
# Assay type: cell-based
# conditionParameters: CEM cells (CCRF-CEM)
reportedEndpoint: CC50 at 72 h

Consider the following illustrative entries.
input: Bench note: what CC50 at 72 h did C[C@H](Cn1cnc2c(N)ncnc21)OCP(=O)(O)O [TENOFOVIR ANHYDROUS] show?
output: > 100 µM

input: Then this compound: O=C(CCC(CCC(=O)N[C@@H](Cc1c[nH]c2ccccc12)C(=O)O)(CCC(=O)N[C@H](Cc1c[nH]c2ccccc12)C(=O)O)NC(=O)c1cc(C(=O)NC(CCC(=O)N[C@@H](Cc2c[nH]c3ccccc23)C(=O)O)(CCC(=O)N[C@H](Cc2c[nH]c3ccccc23)C(=O)O)CCC(=O)N[C@H](Cc2c[nH]c3ccccc23)C(=O)O)cc(C(=O)NC(CCC(=O)N[C@@H](Cc2c[nH]c3ccccc23)C(=O)O)(CCC(=O)N[C@H](Cc2c[nH]c3ccccc23)C(=O)O)CCC(=O)N[C@H](Cc2c[nH]c3ccccc23)C(=O)O)c1)N[C@@H](Cc1c[nH]c2ccccc12)C(=O)O
output: 53 µM

input: Then this compound: O=C(O)CCC(CCC(=O)O)(CCC(=O)O)NC(=O)C[C@H]1C[C@@H](CC(=O)NC(CCC(=O)O)(CCC(=O)O)CCC(=O)O)C[C@@H](CC(=O)NC(CCC(=O)O)(CCC(=O)O)CCC(=O)O)C1
output: > 250 µM

Okay, next one:
input: Bench note: what CC50 at 72 h did CN[C@@H]1[C@H](O[C@@H]2OC[C@@H](O)[C@H](O)[C@H]2O)[C@@H](O)[C@H](O[C@H]2c3cc(C)c(C(=O)N[C@H](C)C(=O)O)c(O)c3-c3c(cc4c(c3O)C(=O)c3cc(OC)cc(O)c3C4=O)[C@@H]2O)O[C@@H]1C show?
output: > 100 µM
